- Test system: non-trichomonal hydrolases present in vaginal fluid
- experiment notes: Experiment 8: polypeptide inhibition of hydrolases in whole vaginal fluid of uninfected women
- Format: biochemical, human
- Parameters: key: 0: Yellow; 1: Peach; 2: Orange; 3: Light to medium pink; 4: Dark pink or red; 5: Fuchsia; 6: Purple
- settings: pH 5; Donor A whole vaginal fluid; ZRR-MNA; 10 mM polypeptide in substrate solution
Ends that are not written are not given here.
readout label: Hydrolase activity color score with polypeptide
Respond with the number and no other words.

Answered cases to consult:
KPQLWP | 0
Arg-Lys-Asn-Val-Tyr (RKNVY; printed: Arg-Lys-Asn-Val-Tyr) | 0.5
KRQHPG | 2

Switching to the query record.
[ask] Reported Hydrolase activity color score with polypeptide, substance RPKPQFFGLM [Arg-Pro-Lys-Pro-Gln-Phe-Phe-Gly-Leu-Met] : ____
[reply] 0.5
